test-conditions: in n-propanol, 298.15 K
measure-name: solubility (mole fraction)
One number for each entry.

Record O=C(O)COc1ccc(Cl)cc1Cl . Reported solubility (mole fraction): 0.11

---

test-conditions: in acetone, 323.15 K
measure-name: solubility (mole fraction)
Answers are plain numbers.

# compound O=C(O)COc1ccc(Cl)cc1Cl ; its solubility (mole fraction) = 0.222

---

test-conditions: in isobutanol, 283.15 K
measure-name: solubility (mole fraction)
Answers are plain numbers.

// O=C(O)COc1ccc(Cl)cc1Cl : solubility (mole fraction) value = 0.0402

---

test-conditions: in 2-butanone, 298.15 K
measure-name: solubility (mole fraction)
Answers are plain numbers.

get_value(item= O=C(O)COc1ccc(Cl)cc1Cl , readout=solubility (mole fraction)) returns 0.134

---

test-conditions: in methyl acetate, 278.15 K
measure-name: solubility (mole fraction)

Input O=C(O)COc1ccc(Cl)cc1Cl . Output solubility (mole fraction): 0.0602

---

test-conditions: in 2-butanone, 303.15 K
measure-name: solubility (mole fraction)
Numbers only.

For reference, reported solubility (mole fraction) for O=C(O)COc1ccc(Cl)cc1Cl stands at 0.144

---

test-conditions: in sec-butanol, 288.15 K
measure-name: solubility (mole fraction)

Short answer for O=C(O)COc1ccc(Cl)cc1Cl : solubility (mole fraction) was 0.0665

---

test-conditions: in n-butanol, 298.15 K
measure-name: solubility (mole fraction)
Numbers only.

Form: compound = O=C(O)COc1ccc(Cl)cc1Cl ; solubility (mole fraction) = 0.127

---

test-conditions: in 2-butanone, 283.15 K
measure-name: solubility (mole fraction)
One number for each entry.

solubility (mole fraction) measured on O=C(O)COc1ccc(Cl)cc1Cl = 0.103

---

test-conditions: in isobutanol, 303.15 K
measure-name: solubility (mole fraction)
Numbers only.

For record O=C(O)COc1ccc(Cl)cc1Cl the listed solubility (mole fraction) is 0.0933

---

test-conditions: in 2-butanone, 313.15 K
measure-name: solubility (mole fraction)
Numbers only.

Looking up O=C(O)COc1ccc(Cl)cc1Cl , I see its solubility (mole fraction) listed as 0.169

---

test-conditions: in 2-butanone, 323.15 K
measure-name: solubility (mole fraction)
Answers are plain numbers.

O=C(O)COc1ccc(Cl)cc1Cl has a reported solubility (mole fraction) of 0.201

---

test-conditions: in n-propanol, 308.15 K
measure-name: solubility (mole fraction)
Answers are plain numbers.

solubility (mole fraction) for O=C(O)COc1ccc(Cl)cc1Cl is 0.152

---

test-conditions: in n-butyl acetate, 298.15 K
measure-name: solubility (mole fraction)

The measured solubility (mole fraction) associated with O=C(O)COc1ccc(Cl)cc1Cl reads 0.0749

---

test-conditions: in 2-butanone, 278.15 K
measure-name: solubility (mole fraction)

Reported solubility (mole fraction) of O=C(O)COc1ccc(Cl)cc1Cl : 0.0937

---

test-conditions: in acetonitrile, 323.15 K
measure-name: solubility (mole fraction)
One number for each entry.

O=C(O)COc1ccc(Cl)cc1Cl yielded solubility (mole fraction) of 0.103

---

test-conditions: in n-butyl acetate, 288.15 K
measure-name: solubility (mole fraction)
Numbers only.

Note to self: solubility (mole fraction) recorded for O=C(O)COc1ccc(Cl)cc1Cl was 0.0604

---

test-conditions: in methyl acetate, 283.15 K
measure-name: solubility (mole fraction)
One number for each entry.

// field: solubility (mole fraction); key: O=C(O)COc1ccc(Cl)cc1Cl ; value = 0.0685
